- experimental details: Plasma and brain pharmacokinetics after single oral administration in mice implanted intracranially with MDA-MB-361 cells
- condition details: female, BALB/cAJcl-nu/nu, mouse, plasma, po, 20 mg/kg
Below, each entry is listed with its recorded Tmax.

{"molecule": "CC#CC(=NOCC1COCCN1)c1ccc2ncnc(Nc3ccc(OCc4cccc(F)c4)c(Cl)c3)c2c1 (centres unmarked)", "Tmax, h": 2}
{"molecule": "CS(=O)(=O)CCNCc1ccc(-c2ccc3ncnc(Nc4ccc(OCc5cccc(F)c5)c(Cl)c4)c3c2)o1 [Lapatinib, reference compound]", "Tmax, h": 0.5}

###

- experimental details: Quantitative MALDI-IMS of drug in brain metastases of the breast cancer IVM (BR2, BR3)
- Format: in vivo, mice
- condition details: female, BALB/cAJcl-nu/nu, mouse, tumor (brain metastasis) in brain sections, po, 50 mg/kg, BR2 IVM, 4 h after single oral 50 mg/kg, IMS
# concentration at 4 h annotations

{"molecule": "CC#CC(=NOCC1COCCN1)c1ccc2ncnc(Nc3ccc(OCc4cccc(F)c4)c(Cl)c3)c2c1 (centres unmarked)", "concentration at 4 h": "2930 ng/g"}
{"molecule": "CS(=O)(=O)CCNCc1ccc(-c2ccc3ncnc(Nc4ccc(OCc5cccc(F)c5)c(Cl)c4)c3c2)o1 [Lapatinib, reference compound]", "concentration at 4 h": "160 ng/g"}
